- study system: human ghrelin receptor (GRLN, growth hormone secretagogue receptor, hGHS-R1a) (Homo sapiens)
- Construct: purchased PerkinElmer BioSignal #RBHGHSM, lot#1887; host or cells: HEK-293 cells, stably transfected (membranes)
- Sequence (Q92847 whole entry): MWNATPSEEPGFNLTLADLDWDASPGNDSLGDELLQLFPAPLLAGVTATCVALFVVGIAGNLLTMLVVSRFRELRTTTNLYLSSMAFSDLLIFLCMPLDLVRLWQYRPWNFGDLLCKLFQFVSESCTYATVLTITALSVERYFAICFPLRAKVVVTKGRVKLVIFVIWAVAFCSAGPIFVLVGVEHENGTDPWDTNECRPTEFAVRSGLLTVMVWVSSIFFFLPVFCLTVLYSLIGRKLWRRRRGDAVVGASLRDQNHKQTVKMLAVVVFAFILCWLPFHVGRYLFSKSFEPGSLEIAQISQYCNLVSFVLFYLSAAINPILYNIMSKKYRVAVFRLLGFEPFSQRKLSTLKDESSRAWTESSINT
- measurement description: Competitive radioligand binding assay (ghrelin receptor), Method B1
- assay setup: Ghrelin receptor binding activity, Method B1
Entries and their IC50

Would you please look over these solved cases?
molecule: CC(O)[C@H]1C(=O)N[C@H](Cc2c[nH]c3ccccc23)C(=O)N[C@H](C)CCc2ccccc2OCCN[C@@H](C(C)(C)C)C(=O)N1C (stereo partly shown)
IC50: 10 to 100 nM
//
molecule: CCC1CCc2ccc(F)cc2OCCNC(C(C)C)C(=O)N(C)C(C(C)OC(C)=O)C(=O)NC(Cc2c[nH]c3ccccc23)C(=O)N1 (stereo not shown)
IC50: > 500 nM
//
molecule: CC(O)[C@H]1C(=O)N[C@H](Cc2ccccc2)C(=O)NC/C=C/c2ccccc2OCCN[C@@H](C2CCCC2)C(=O)N1C (stereo partly shown)
IC50: 10 to 100 nM
//
molecule: CC[C@@H]1C#Cc2ccc(F)cc2O[C@H](C)CN[C@@H](C2(C)CC2)C(=O)N(C)[C@@H](C(C)O)C(=O)N[C@H](Cc2c[nH]c3ccccc23)C(=O)N1 (stereo partly shown)
IC50: 10 to 100 nM
//
molecule: CC[C@@H]1NCCOc2ccccc2/C=C/CNC(=O)[C@@H](Cc2ccc(Cl)cc2)NC(=O)[C@H](C(C)O)N(C)C1=O (stereo partly shown)
IC50: 10 to 100 nM

State its IC50: CCC1CCc2ccc(F)cc2OC(C)CNC(CC)C(=O)N(C)C(C(C)O)C(=O)NC(Cc2ccccc2)C(=O)N1 (stereo not shown) > 500 nM

State its IC50: CC(C)[C@@H]1NCCOc2ccccc2CC[C@H](C(C)C)NC(=O)[C@@H](Cc2cccc(F)c2)NC(=O)[C@H](C(C)O)N(C)C1=O (stereo partly shown) 100 to 500 nM

State its IC50: CCC(C)C1NCCOc2ccccc2C=CCNC(=O)C(Cc2ccc(Cl)cc2)NC(=O)C(C(C)O)N(C)C1=O (stereo not shown) 1 to 10 nM

State its IC50: CCC1CCc2ccc(F)cc2OCCNC(CC)C(=O)N(C)C(C(C)O)C(=O)NC(Cc2ccc(F)cc2)C(=O)N1 (stereo not shown) 10 to 100 nM

State its IC50: CCC1CCc2ccc(F)cc2OCCNC(C2(C)CC2)C(=O)N(C)C(C(C)O)C(=O)NC(Cc2c[nH]c3ccccc23)C(=O)N1 (stereo not shown) 1 to 10 nM

State its IC50: CCC1CCc2ccc(Cl)cc2OCCNC(C(C)C)C(=O)N(C)C(C(C)O)C(=O)NC(Cc2cccc(F)c2)C(=O)N1 (stereo not shown) 100 to 500 nM

State its IC50: CCC(C)C1NCCOc2cccc3c2CC(CC3)CNC(=O)C(Cc2ccccc2)NC(=O)C(C(C)O)N(C)C1=O (stereo not shown) 1 to 10 nM

State its IC50: CC(O)[C@H]1C(=O)N[C@H](Cc2c[nH]c3ccccc23)C(=O)N[C@H](C)CCc2ccc(F)cc2O[C@H](C)CN[C@@H](C2(C)CC2)C(=O)N1C (stereo partly shown) 10 to 100 nM
